test system: HeLa cells; experiment: Compound screen by flow cytometry: HeLa cell count as surrogate readout of cell viability (z-scoreHeLa); type: cell-based, human; details: PKIS compound screen raw data, HeLa cell count, replicate 3; note: test concentration or dose not given here
measured.parameter: cell count rep 3
Response field accepts a number only; no unit should be typed.

COc1ccc(Nc2nccc(N3CCC(NC(=O)Nc4cccc(C(C)=O)c4)C3)n2)cc1 (stereo not drawn) [GSK1379731A]    19502
CS(=O)(=O)CCNCc1cc(-c2cc3c(Nc4ccc(OCc5cccc(F)c5)c(Cl)c4)ncnc3s2)cs1 [GSK300014A]    46044

Moving on to the next compound.
Inquiry: Which cell count rep 3 value belongs to Nc1ncc(-c2cccnc2)c2scc(-c3ccc4c(c3)CCN4C(=O)Cc3ccccc3)c12 [GSK683281A] ?
Reply text: 35639

====

test system: HeLa cells; test: Compound screen by flow cytometry: HeLa cell count as surrogate readout of cell viability (z-scoreHeLa); type: cell-based, human; details: PKIS compound screen, HeLa cell count, mean of 3 replicates; note: test concentration or dose not given here
measured.parameter: z-scoreHeLa mean
Provide a numeric answer; units are not to be included.

Worked set:
COc1cc2ncn(-c3cc(OCc4ccccc4C(F)(F)F)c(C(=O)N(C)C)s3)c2cc1OC [GSK1030062A]    -1.17
COC(=O)c1cccc(NC(=O)NC2CCN(c3ccnc(NCc4ccc(F)cc4)n3)CC2)c1 [GSK1379860A]    -1.64

Here is the next item to consider.
Inquiry: For the compound Fc1cc(Cl)ccc1Nc1ccnc2cc(-c3ccc(CN4CCSCC4)o3)ccc12 [GW560106X] , what z-scoreHeLa mean is on record?
Reply text: -0.095

====

The entries below are paired with their reported cell count rep 1.
system: HeLa cells; experiment: Compound screen by flow cytometry: HeLa cell count as surrogate readout of cell viability (z-scoreHeLa); type: cell-based, human; settings: PKIS compounds raw data; replicate 1; HeLa cell count; note: test concentration or dose not given here

Worked set:
CCn1c(-c2nonc2N)nc2c(C#CC(C)(C)O)nc(OCCNC)cc21 [GSK949675A]    4918
Oc1ccc2ncnc(Nc3ccc(OCc4ccccc4)cc3)c2c1 [GI262866A]    5744
Cn1cc(-c2ccc3c(c2)CCN3C(=O)Cc2cccc(F)c2)c2c(N)ncnc21 [GSK2603358A]    5847

# context switch: different compound, same cell count rep 1
Inquiry: // returns reported cell count rep 1 for input CC(C)c1nc(-c2ccc(F)c(NS(=O)(=O)c3c(F)cccc3F)c2)c(-c2ccnc(Nc3ccc(N4CCOCC4)nc3)n2)s1 [GSK1804250A]
Reply text: 3939

====

tested on: HeLa cells; test: Compound screen by flow cytometry: HeLa cell count as surrogate readout of cell viability (z-scoreHeLa); assay type: cell-based, human; conditions: compound screen, HeLa cell count, replicate 3; note: test concentration or dose not given here
z-scoreHeLa rep 3 listing for selected compounds.
// return just the number, without any unit appended

Past entries and their recorded results:
CCn1c(-c2nonc2N)nc2c(C#CC(C)(C)O)nc(OC[C@H](N)c3ccccc3)cc21 [GSK943949A]    -3.04
Cc1nnc(-c2ccc(C)c(-c3ccc(C(=O)Nc4ccc(NS(C)(=O)=O)cc4)cc3)c2)o1 [GW702865X]    -0.29
COc1cc(C=NNc2ncnc3c2cnn3-c2ccccc2)ccc1O [GW513184X]    0.24

Inquiry: Given the compound CS(=O)(=O)CCN(CC#N)Cc1ccc(-c2ccc3ncnc(Nc4ccc(OCc5cccc(F)c5)c(Cl)c4)c3c2)o1 [GW616030X] , what is its reported z-scoreHeLa rep 3?
Reply text: -0.50

Inquiry: Same read-out for Cl.Cl.Cl.Fc1ccc(-c2ncn(C3CCNCC3)c2-c2ccnc(Nc3ccccc3)n2)cc1 ?
Reply text: -1.81
